experiment: LogP by HPLC on reversed phase columns (EEC directive 79/831 Annex V.A8); format: physicochemical; details: pH 2.7, 0.1% formic acid in water / acetonitrile gradient
Consider the following compounds and their measured LogP readings.

compound: CC(=CC(=O)Nc1nc(CON=C(c2ccccc2)c2nnnn2C)cs1)C1CC1
LogP: 3.41

compound: CC(=CC1CC1)C(=O)Nc1nc(CON=C(c2ccccc2)n2nnnc2C)cs1
LogP: 3.52

compound: CC(=CC(=O)Nc1nc(CON=C(c2ccccc2)n2nnnc2C)cs1)C1CC1
LogP: 3.46

compound: CC(=CC(=O)Nc1cccc(CON=C(c2ccccc2)c2nnnn2C)n1)C1CCCCC1
LogP: 4.82

compound: Cc1nnnn1C(=NOCc1cccc(NC(=O)C=CC2CCCCC2)n1)c1ccccc1 (mixture of isomers)
LogP: 4.46

compound: Cn1nnnc1C(=NOCc1csc(NC(=O)C=CC2CC2)n1)c1ccccc1
LogP: 3.04

compound: Cc1nnnn1C(=NOCc1csc(NC(=O)C=C(c2ccccc2)C2CC2)n1)c1ccccc1 [Example 17]
LogP: 2.38

compound: Cc1nnnn1C(=NOCc1cccc(NC(=O)C=C(c2ccccc2)C2CC2)n1)c1ccccc1
LogP: 4.41

compound: CC(=CC1CCCC1)C(=O)Nc1nc(CON=C(c2ccccc2)n2nnnc2C)cs1
LogP: 4.16

compound: CC(=CC1CC1)C(=O)Nc1nc(CON=C(c2ccccc2)c2nnnn2C)cs1
LogP: 3.44
